Data origin, for the record: a melting point compilation (Tetko et al.; mined from patent text by program, amines drawn as free bases though some values may be those of a salt)

Measured metric: melting point

In [3]: df
Out[3]:
                                   compound  reported_measurement
0  O=[N+]([O-])c1cnccc1NCC(O)CO (stereo not given)         131 to 135 °C
1  O=c1ccc(S(=O)(=O)c2[nH]c3ccccc3c2Cl)n[nH]1                250 °C
2      CC(=O)/C=C(\C)c1ccc(C2CCCCC2)c(Cl)c1       56.5 to 57.5 °C
3  Cc1oc(-c2ccccc2)nc1COc1ccc(COC(=O)Cc2cccc(OCc3ccc(OCc4nc(-c5ccccc5)oc4C)cc3)c2)cc1           90 to 91 °C
4    CCC(CC)Sc1cc2c(cc1Cl)N=C(CCl)NS2(=O)=O         213 to 214 °C
5      CCn1nc2c(N)nc3ccccc3c2c1CC1(O)CCOCC1         253 to 255 °C
6       O=C(O)c1ccc(C(c2ccccc2)c2ccccc2)cn1         189 to 191 °C
7  CC(C)(C)c1cc(-c2nc3n(c2C#N)CCS3)cc(C(C)(C)C)c1O         207 to 208 °C
8             CN(C)CCCOc1ccc2c(c1)SCC(=O)N2         120 to 121 °C
9  Cc1sc(N2CCOCC2)nc1/C=C/c1cn(-c2ccccc2)nc1O         278 to 279 °C

---

Non-standard residues stand in square brackets, D forms with d. Residues, ends and D or L forms follow the SMILES beside them. *: point of attachment. NHPhenethyl = c1ccc(CCN*)cc1; pGlu = O=C1CC[CH](C(=O)O)N1
In this section, each of the compounds is paired with its reported melting point.
Measured metric: melting point

Compound	Reported measurement
COc1cc(NC(=O)NS(=O)(=O)c2ccccc2Cl)nc(OC)n1	193 to 196 °C
O=C(c1ccc(NS(=O)(=O)c2ccccc2Cl)cc1)N1Cc2cccn2Cc2ccccc21	206 to 210 °C
Fc1ccc(-c2n[nH]cc2-c2ccnc(Cl)n2)cc1	204 to 205 °C
NC(=O)CC(NC(=O)C(CO)NC(=O)CNC(=O)CNC(=O)C1CCC(=O)N1)C(=O)NC(Cc1ccccc1)C(=O)NCCc1ccccc1 (centres undefined) ([pGlu]GGSNF-NHPhenethyl; configuration not given here)	209 to 211 °C

---

In this section, each of the compounds is paired with its reported melting point.
Measured metric: melting point

>>> df
                                    compound  reported_measurement
 0                     Cc1nnn(CC(I)=C(I)I)n1                111 °C
 1             O=c1[nH]c(=O)n2c3c(cccc13)CC2         314 to 315 °C
 2  CCCOC12CCC(=O)C3(C)Oc4c(O)ccc5c4C31CCN(C)C2C5 (stereo not given)         193 to 195 °C
 3             COc1nccc(C)c1NC(=O)c1cccnc1Cl         145 to 146 °C
 4  O=C(Nc1ccc(C(=O)N(CCN2CCC(C(=O)c3ccc(F)cc3)CC2)c2cccnc2)cc1)c1ccccc1         162 to 166 °C
 5             Cc1ccc(C)c2c(=O)oc(=O)[nH]c12         295 to 298 °C
 6       CCNc1nc2ccc(CCc3ccc(CN(C)C)o3)cc2o1           72 to 73 °C
 7  CS(=O)(=O)c1ccc(-n2nc(CCCNC(=O)Nc3cccc(C(F)(F)F)c3)cc2-c2ccccc2)cc1         150 to 152 °C
 8  O=C(NCc1ccc([N+](=O)[O-])cc1)c1ccc2cccnc2c1O         210 to 212 °C
 9  CC(C)c1nc2cc(NC(=O)c3c(C(=O)O)cnn3C)ccn2n1              > 250 °C
10  CCCC(=O)Oc1ccc(C)cc1[C@H](CCN(C(C)C)C(C)C)c1ccccc1         116 to 119 °C
11  Cn1c2c(ccc1=O)C(NCCc1ccc(C(F)(F)F)cc1)CCC2 (stereo not given)         104 to 106 °C
12  CCCCCCCCCCCCC1=C(OC(=O)CC)C(=O)c2ccccc2C1=O           42 to 44 °C
13  O=C(N[C@H]1CC[C@H](CCN2CCC(c3cccc4c3CCO4)CC2)CC1)c1ccc(-n2cccn2)cc1                258 °C
14  O=[N+]([O-])CC1(SCc2ccccc2)CCC2(CC1)OCCO2         121 to 122 °C
15  N#Cc1cc(Cl)ccc1N1CCN(Cc2cn3cc(Cl)ccc3n2)CC1         191 to 192 °C
16  CC[C@@H](NC(=O)N1CC(=O)NC[C@H](Cc2cc(Cl)ccc2OC)C1=O)c1ccc(C(=O)O)c(N)c1         139 to 140 °C
17  CCCCc1nc2c(N)nc3ccccc3c2n1CCCCCCCCNS(C)(=O)=O         121 to 124 °C
18  CCC(Nc1ccc(Br)cc1)n1nnc2ccccc21 (stereo not given)                132 °C
19  N#CCOc1cc2c(cc1C#Cc1ccccc1)NC(=O)CC(c1cccc(-n3ccnc3)c1)=N2                214 °C
